- TEST DESCRIPTION: DRUGMATRIX: Nicotinic Acetylcholine radioligand binding (ligand: [125I] Epibatidine)
- Format: cell membranes, Membrane
- PROTOCOL CONDITIONS: imr-32; Not Active = under 50% inhibition at 10 µM
PROPERTY NAME: IC50

N=C(N)NCCCCNC(=N)N.O=S(=O)(O)O [ARCAINE SULFATE]: Not Active
CCCCCCCCCc1ccc(O)cc1: Not Active
CC(C)(C)NCC(O)c1ccc(O)c(CO)c1 (stereo not drawn): Not Active

###

- SUBJECT OF TEST: Adenosine receptor A3 (Homo sapiens)
- Sequence (P0DMS8 whole entry): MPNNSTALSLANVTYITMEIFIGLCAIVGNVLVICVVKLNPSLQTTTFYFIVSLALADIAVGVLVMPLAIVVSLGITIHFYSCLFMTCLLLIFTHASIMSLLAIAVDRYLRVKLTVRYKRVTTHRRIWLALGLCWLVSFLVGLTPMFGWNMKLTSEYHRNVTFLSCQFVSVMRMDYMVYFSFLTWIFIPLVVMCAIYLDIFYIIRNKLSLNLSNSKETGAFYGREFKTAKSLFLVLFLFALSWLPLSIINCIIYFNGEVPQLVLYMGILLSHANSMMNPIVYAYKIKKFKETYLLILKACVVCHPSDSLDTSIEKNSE
- Assay type: cell membranes, CHO-K1, Membrane
- PROTOCOL CONDITIONS: read-out: Ki
PROPERTY NAME: pKi
In textbook form, pKi equals minus log to base ten of the concentration in mol/L.

input: Quick check: pKi of `CCCCCCCCCc1ccc(O)cc1` ?
output: 5.97

input: Please do the same for `Oc1c(Cl)cc(Cl)cc1Sc1cc(Cl)cc(Cl)c1O` as well.
output: 6.33

input: Similarly, Clc1ccc(C(c2ccccc2Cl)C(Cl)Cl)cc1 (stereo not drawn) ?
output: 5.38
